Task for the reader: assign each of the following compounds its reported EC50.
Test system: Hepatitis B virus (HBV)
testMethodNotes: microbe, parasite or virus in culture
Type: cell-based
runParameters: read-out: EC50 HBV
Number in µM, nothing else.

Q: Give recorded EC50 with Hepatitis B virus (HBV) for the following compound: `C[C@@H]1O[C@@H](OC[C@H]2O[C@H](Oc3c(-c4cc(O)c(O)c(O)c4)oc4cc(O)cc(O)c4c3=O)[C@H](O)[C@@H](O)[C@H]2O)[C@H](O)[C@H](O)[C@H]1O`
Ans: 12

Q: Give recorded EC50 with Hepatitis B virus (HBV) for the following compound: C[C@@H]1O[C@@H](Oc2c(-c3cc(O)c(O)c(O)c3)oc3cc(O)cc(O)c3c2=O)[C@H](O)[C@H](O)[C@H]1O [MyrG, myricetin rhamnoside]
Ans: 0.015
